system-under-test: T1, full-length beta-Catenin (Uniprot ID P35222) (Homo sapiens (Human), UniProt P35222 1-781)
T1 construct: The assay text says full-length; also called bCat; B-Catenin
T1 sequence: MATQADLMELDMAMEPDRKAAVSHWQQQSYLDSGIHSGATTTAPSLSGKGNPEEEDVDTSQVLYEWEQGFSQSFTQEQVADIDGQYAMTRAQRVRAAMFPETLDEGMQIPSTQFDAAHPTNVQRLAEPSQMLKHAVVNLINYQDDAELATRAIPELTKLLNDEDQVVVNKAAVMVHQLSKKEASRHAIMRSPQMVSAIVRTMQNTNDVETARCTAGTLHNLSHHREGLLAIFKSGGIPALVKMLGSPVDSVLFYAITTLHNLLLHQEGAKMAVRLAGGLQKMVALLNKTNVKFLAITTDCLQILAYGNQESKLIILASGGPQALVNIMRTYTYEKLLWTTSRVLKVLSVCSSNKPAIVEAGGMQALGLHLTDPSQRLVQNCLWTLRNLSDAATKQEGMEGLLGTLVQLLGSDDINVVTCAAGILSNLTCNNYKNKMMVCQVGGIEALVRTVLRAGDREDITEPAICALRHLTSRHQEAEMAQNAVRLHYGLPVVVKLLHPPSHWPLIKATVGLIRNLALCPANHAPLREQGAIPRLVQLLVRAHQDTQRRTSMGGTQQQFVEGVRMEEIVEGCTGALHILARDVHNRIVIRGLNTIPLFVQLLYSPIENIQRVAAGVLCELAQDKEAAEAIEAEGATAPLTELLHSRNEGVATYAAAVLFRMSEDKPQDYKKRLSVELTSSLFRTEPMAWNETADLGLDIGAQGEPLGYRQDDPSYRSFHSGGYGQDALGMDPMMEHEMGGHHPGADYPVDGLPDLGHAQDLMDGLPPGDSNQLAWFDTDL
test-summary: fluorescence polarization competition; full-length beta-catenin with 5FAM-TCF4(10-53) probe as competitor
Measured pIC50 values are reported for all entries that follow.
# pIC50: negative log10 of molar concentration; output just the value

XDLXDEAAFTXFXH (not fully specified; N-terminal Ac; PL3 (pos 1), B5 (pos 4), S8 (pos 11) stapled (PL3-B5 and B5-S8); BztA (pos 13); C-terminal NH2, Stapled peptide; also called Ac-PL3-Asp-Leu-B5-Asp-Glu-Ala-Ala-Phe-Thr-S8-Phe-BztA-His-NH2) [I-618] = 6.87
XDIXDEAAFQXFXQ (N-terminal Bnc cap; PL3 (pos 1), B5 (pos 4), S8 (pos 11) stapled (PL3-B5 and B5-S8, olefin metathesis); BztA (pos 13); C-terminal NH2, Stapled peptide; also called Bnc-PL3-Asp-Ile-B5-Asp-Glu-Ala-Ala-Phe-Gln-S8-Phe-BztA-Gln-NH2) [I-601] = 6.38
XDIXDEAAFQXFXQ (N-terminal 2PyPrpc cap; PL3 (pos 1), B5 (pos 4), S8 (pos 11) stapled (PL3-B5 and B5-S8); BztA (pos 13); C-terminal NH2, Stapled peptide; also called 2PyPrpc-PL3-Asp-Ile-B5-Asp-Glu-Ala-Ala-Phe-Gln-S8-Phe-BztA-Gln-NH2) [I-602] = 5.50

Note: attention shifts to another entry.
get_value(item= XDLXDEAAFTXFXQ (not fully specified; N-terminal Ac; PL3 (pos 1), B5 (pos 4), S8 (pos 11) stapled (PL3-B5 and B5-S8); BztA (pos 13); C-terminal NH2, Stapled peptide; also called Ac-PL3-Asp-Leu-B5-Asp-Glu-Ala-Ala-Phe-Thr-S8-Phe-BztA-Gln-NH2) [I-622] , readout=pIC50) returns 6.64

Cited source for all entries: patent US20240116985A1
